Where these numbers come from: ChEMBL document CHEMBL2203110

assay: Permeability of the compound across human Caco2 cells; type: ADME, cell-based; settings: Caco-2, read-out: permeability
READOUT KIND: Papp
Answer by giving the amount and then stating its unit.

See these solved cases before continuing.
SMILES STR | READOUT KIND | VALUE MEASURED
CCc1cc(-c2ccc(C(F)(F)F)o2)n(-c2ccc3c(c2)nc(-c2cc(C(=O)N4CCCC4)ccc2O)n3Cc2ccc(=O)[nH]c2)n1 | Papp | 0.19 ×10⁻⁶ cm/s
CCc1cc(-c2ccc(C(F)(F)F)o2)n(-c2ccc3c(c2)nc(-c2cc(C(=O)N4CCCC4)ccc2O)n3Cc2cc(C)c(=O)n(C)c2)n1 | Papp | 7.2 ×10⁻⁶ cm/s

Turning to the following compound.
Specify measured Papp for `CCc1cc(-c2ccc(C(F)(F)F)o2)n(-c2ccc3c(c2)nc(-c2cc(C(=O)N4CCCC4)ccc2O)n3Cc2c[nH]c(=O)c(C)c2)n1` . 6.8 ×10⁻⁶ cm/s

====

system: Human immunodeficiency virus 1; assay: Antiviral activity against HIV1; assay type: functional, organism-based
pEC50: −log10 of the molar value.
Short version: pEC50 at least 6 is Condition met, less is Condition not met.

As a guide, the following entries are already answered.
SMILES STR | CAT
CCc1cc(-c2ccc(C)o2)n(-c2ccc3c(c2)nc(-c2cc(C(=O)O)ccc2O)n3Cc2ccc(=O)[nH]c2)n1 | Condition not met
CCc1cc(-c2ccc(C)o2)n(-c2ccc3c(c2)nc(-c2cc(F)ccc2O)n3Cc2ccc(=O)[nH]c2)n1 | Condition met
CCc1cc(-c2ccc(C(F)(F)F)o2)n(-c2ccc3c(c2)nc(-c2cc(C(=O)N(C)C)ccc2O)n3Cc2ccc(=O)[nH]c2)n1 | Condition met
CCc1cc(-c2ccc(C(F)(F)F)o2)n(-c2ccc3c(c2)nc(-c2cc(C(=O)N4CCCC4)ccc2O)n3Cc2c[nH]c(=O)c(C)c2)n1 | Condition met
CCc1cc(-c2ccc(C(F)(F)F)o2)n(-c2ccc3c(c2)nc(-c2cc(C(=O)N4CCCC4)ccc2O)n3Cc2ccc(=O)[nH]c2)n1 | Condition met

API: the following record is the query input.
Reported pEC50 reaches at least 6 for `CCc1cc(-c2ccc(C)o2)n(-c2ccc3c(c2)nc(-c2cc(C(=O)N(C)C)ccc2O)n3Cc2ccc(=O)[nH]c2)n1` ? Condition met

====

Recorded IC50 by entry
target: Structural capsid protein (Human immunodeficiency virus 1); assay: Inhibition of HIV1 capsid protein assembly using 5'-fluorescein-labeled (TG)25 oligonucleotide after 2 hrs by fluorometry-based capsid disassembly assay
Sequence (Q76129 whole entry): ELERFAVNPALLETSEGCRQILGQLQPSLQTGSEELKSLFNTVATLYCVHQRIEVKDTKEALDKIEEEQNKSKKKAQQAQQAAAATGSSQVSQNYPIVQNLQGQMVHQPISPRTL
Kindly answer with a numeric value in µM, unit omitted.

Check out these entries, answers already filled in.
SMILES STR | IC50 / µM
CCc1cc(-c2ccc(C)o2)n(-c2ccc3c(c2)nc(-c2cc(F)ccc2O)n3Cc2ccc(=O)[nH]c2)n1 | 0.041
CCc1cc(-c2ccc(C)o2)n(-c2ccc3c(c2)nc(-c2ccc(C(N)=O)cc2)n3Cc2ccc(=O)[nH]c2)n1 | 0.17
CCc1cc(-c2ccc(C)o2)n(-c2ccc3c(c2)nc(-c2ccc(C(N)=O)cc2)n3Cc2ccc(OC)nc2)n1 | 0.83
Cc1cc(-c2ccco2)n(-c2ccc3c(c2)nc(COc2ccc(C(=N)N)cc2)n3C)n1 | 6
CCc1cc(-c2ccc(C)o2)n(-c2ccc3c(c2)nc(-c2cc(C(=O)O)ccc2O)n3Cc2ccc(OC)c(O)c2)n1 | 0.088
CCc1cc(-c2ccc(C)o2)n(-c2ccc3c(c2)nc(-c2ccc(C(N)=O)cc2)n3CC2CC2)n1 | 1
CCc1cc(-c2ccc(C)o2)n(-c2ccc3c(c2)nc(-c2cc(C(=O)O)ccc2O)n3Cc2ccc(=O)[nH]c2)n1 | 0.056

Query molecule follows.
Report IC50 for `CCc1cc(-c2ccc(C)o2)n(-c2ccc3c(c2)nc(-c2cc(C(=O)N(C)C)ccc2O)n3Cc2ccc(=O)[nH]c2)n1` 0.049
